These entries and their values trace back to patent EP0908457B1.

test system: Sagittaria pygmaea, L.; test: Preemergence weed control under flooded paddy conditions, SAGPY (Arrowhead (Pygmaea)); assay type: in vivo; conditions: Rate 0.5000 kg/ha; preemergence, flooded paddy; rated three to four weeks after treatment
quantity_measured: SAGPY herbicidal effect rating
One number for each entry.

Look at each molecule and report its SAGPY herbicidal effect rating.
1. Cn1c(C(F)(F)F)cc(=O)n(-c2ccc3snc(-c4ccc(OCC(=O)OC(C)(C)C)cc4)c3c2)c1=O [Example 273]
2. Cc1ccc(OCC(=O)NS(=O)(=O)c2c(C)noc2C)c(-c2nsc3ccc(-n4c(=O)cc(C(F)(F)F)n(C)c4=O)cc23)c1 [Example 270]

OUTPUT:
1: 0.0; 2: 5.0

Look at each molecule and report its SAGPY herbicidal effect rating.
1. Cn1c(C(F)(F)F)cc(=O)n(-c2ccc3snc(CSCC(=O)O)c3c2)c1=O [Example 283]
2. COC(=O)C(C)Oc1c(-c2nsc3ccc(-n4c(=O)cc(C(F)(F)F)n(C)c4=O)cc23)ccc(C)c1C (stereo not drawn) [Example 275]

OUTPUT:
9.0
0.0

Look at each molecule and report its SAGPY herbicidal effect rating.
1. C#CCOC(=O)COc1c(-c2nsc3ccc(-n4c(=O)cc(C(F)(F)F)n(C)c4=O)cc23)ccc(C)c1C [Example 280]
2. Cn1c(C(F)(F)F)cc(=O)n(-c2ccc3snc(CS(=O)(=O)CC(=O)O)c3c2)c1=O [Example 282]

OUTPUT:
1: 9.0; 2: 0.0
